- assayed.system: hCA XII (Homo sapiens, UniProt O43570)
- Sequence (O43570 25-354): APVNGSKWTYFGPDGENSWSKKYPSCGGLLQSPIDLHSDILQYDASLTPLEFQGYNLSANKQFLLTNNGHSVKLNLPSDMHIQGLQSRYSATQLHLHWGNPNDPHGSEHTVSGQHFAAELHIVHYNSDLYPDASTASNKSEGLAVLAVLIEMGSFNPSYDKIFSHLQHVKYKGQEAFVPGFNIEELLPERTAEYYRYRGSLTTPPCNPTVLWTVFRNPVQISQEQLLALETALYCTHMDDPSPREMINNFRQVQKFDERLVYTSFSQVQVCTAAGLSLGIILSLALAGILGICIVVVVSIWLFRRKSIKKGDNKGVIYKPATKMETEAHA
- assay.overview: Stopped-flow CO2 hydrase assay, hCA XII
- condition.info: selectivity index, ratio of KIs
For each entry below, report its SI CA I/XII value.
One number for each entry.

smiles.representation: NS(=O)(=O)c1ccc(CCN(Cc2ccc([N+](=O)[O-])cc2)C(=O)c2ccc(-c3cssc3=S)cc2)cc1
SI CA I/XII: 226
--
smiles.representation: CSc1ccc(CN(CCc2ccc(S(N)(=O)=O)cc2)C(=O)c2ccc(-c3cssc3=S)cc2)cc1
SI CA I/XII: 858
--
smiles.representation: CN(C)c1ccc(CN(CCc2ccc(S(N)(=O)=O)cc2)C(=O)c2ccc(-c3cssc3=S)cc2)cc1
SI CA I/XII: 448
--
smiles.representation: NS(=O)(=O)c1ccc(CCNCc2ccc([N+](=O)[O-])cc2)cc1
SI CA I/XII: 2.9

Give SI CA I/XII for all compounds that follow.
1. NS(=O)(=O)c1ccc(CCNCc2ccc(Cl)cc2)cc1
2. NS(=O)(=O)c1ccc(CCNCc2ccc(F)cc2)cc1

## Output
1.8
1.9

---

- assayed.system: hCA I (Homo sapiens, UniProt P00915)
- Sequence (P00915 whole entry): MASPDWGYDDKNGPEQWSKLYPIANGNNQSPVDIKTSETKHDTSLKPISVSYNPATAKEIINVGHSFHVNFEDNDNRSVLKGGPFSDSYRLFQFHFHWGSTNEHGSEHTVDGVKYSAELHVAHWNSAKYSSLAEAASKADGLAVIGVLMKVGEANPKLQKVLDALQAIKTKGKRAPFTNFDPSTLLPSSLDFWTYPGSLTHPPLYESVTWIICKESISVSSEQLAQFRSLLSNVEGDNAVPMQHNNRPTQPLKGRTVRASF
- assay.overview: Stopped-flow CO2 hydrase assay, hCA I
For each entry below, report its Ki value.

Take a look at these entries with their results.
smiles.representation: COc1ccc(CNCCc2ccc(S(N)(=O)=O)cc2)cc1
assayed.system: hCA I (Homo sapiens, UniProt P00915)
Ki: 97.2 nM
--
smiles.representation: NS(=O)(=O)c1ccc(CCN(Cc2ccccc2)C(=O)c2ccc(-c3cssc3=S)cc2)cc1
assayed.system: hCA I (Homo sapiens, UniProt P00915)
Ki: 771 to 890 nM

Proceeding to the next compound to report its Ki.
## Input Report Ki for `COc1ccc(CN(CCc2ccc(S(N)(=O)=O)cc2)C(=O)c2ccc(-c3cssc3=S)cc2)cc1OC` please.
## Output 771 to 890 nM

---

- assayed.system: hCA IV (Homo sapiens)
- assay.overview: Stopped-flow CO2 hydrase assay, hCA IV
- condition.info: selectivity index, ratio of KIs
measurement.name: SI CA I/IV
Give bare numbers.

Take a look at these entries with their results.
compound: NS(=O)(=O)c1ccc(CCN(Cc2ccc(Cl)cc2)C(=O)c2ccc(-c3cssc3=S)cc2)cc1 [Compound 21]
assayed.system: hCA IV (Homo sapiens)
SI CA I/IV: 12.8
--
compound: CN(C)c1ccc(CN(CCc2ccc(S(N)(=O)=O)cc2)C(=O)c2ccc(-c3cssc3=S)cc2)cc1 [Compound 24]
assayed.system: hCA IV (Homo sapiens)
SI CA I/IV: 1.2
--
compound: NS(=O)(=O)c1ccc(CCNCc2ccc(Br)cc2)cc1 [Compound 7]
assayed.system: hCA IV (Homo sapiens)
SI CA I/IV: 0.04

Give SI CA I/IV for all compounds that follow.
1. N#CCCNCCc1ccc(S(N)(=O)=O)cc1 [Compound 18]
2. NS(=O)(=O)c1ccc(CCN(Cc2ccccc2)C(=O)c2ccc(-c3cssc3=S)cc2)cc1 [Compound 19]

## Output
[0.01, 0.18]

---

- assayed.system: hCA XII (Homo sapiens, UniProt O43570)
- assay.overview: Stopped-flow CO2 hydrase assay, hCA XII
- condition.info: selectivity index, ratio of KIs
Assign 1 to entries whose SI CA II/XII meets or exceeds 70; assign 0 to the rest.

Sample answers from the record:
compound: NS(=O)(=O)c1ccc(CCNCCc2ccccc2)cc1 [Compound 17]
class.name: 0
//
compound: NS(=O)(=O)c1ccc(CCN(Cc2csc3ccccc23)C(=O)c2ccc(-c3cssc3=S)cc2)cc1 [Compound 31]
class.name: 1
//
compound: COc1ccc(CN(CCc2ccc(S(N)(=O)=O)cc2)C(=O)c2ccc(-c3cssc3=S)cc2)cc1OC [Compound 28]
class.name: 0
//
compound: NS(=O)(=O)c1ccc(CCN(Cc2ccc(Cl)cc2)C(=O)c2ccc(-c3cssc3=S)cc2)cc1 [Compound 21]
class.name: 1
//
compound: N#CCCN(CCc1ccc(S(N)(=O)=O)cc1)C(=O)c1ccc(-c2cssc2=S)cc1 [Compound 33]
class.name: 0
//
compound: CN(C)c1ccc(CN(CCc2ccc(S(N)(=O)=O)cc2)C(=O)c2ccc(-c3cssc3=S)cc2)cc1 [Compound 24]
class.name: 1

## Input Textbook exercise: given the entry COc1ccc(CN(CCc2ccc(S(N)(=O)=O)cc2)C(=O)c2ccc(-c3cssc3=S)cc2)cc1 [Compound 27] , state whether its SI CA II/XII is greater than or equal to 70.
## Output 0

## Input Textbook exercise: given the entry NS(=O)(=O)c1ccc(CCN(Cc2ccccc2)C(=O)c2ccc(-c3cssc3=S)cc2)cc1 [Compound 19] , state whether its SI CA II/XII is greater than or equal to 70.
## Output 0

## Input Textbook exercise: given the entry N#Cc1ccc(CN(CCc2ccc(S(N)(=O)=O)cc2)C(=O)c2ccc(-c3cssc3=S)cc2)cc1 [Compound 23] , state whether its SI CA II/XII is greater than or equal to 70.
## Output 1

---

For each entry below, report its SI CA I/IV value.
- assayed.system: hCA IV (Homo sapiens, UniProt P22748)
- Sequence (P22748 19-312): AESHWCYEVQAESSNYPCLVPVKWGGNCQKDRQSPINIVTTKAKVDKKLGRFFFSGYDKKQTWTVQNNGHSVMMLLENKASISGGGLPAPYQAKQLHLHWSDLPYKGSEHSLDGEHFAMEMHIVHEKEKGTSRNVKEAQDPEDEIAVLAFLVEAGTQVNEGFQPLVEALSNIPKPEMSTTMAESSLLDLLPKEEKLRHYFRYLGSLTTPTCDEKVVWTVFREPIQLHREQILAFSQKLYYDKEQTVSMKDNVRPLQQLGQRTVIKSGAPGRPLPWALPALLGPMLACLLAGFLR
- assay.overview: Stopped-flow CO2 hydrase assay, hCA IV
- condition.info: selectivity index, ratio of KIs

smiles.representation: NS(=O)(=O)c1ccc(CCN(Cc2ccc([N+](=O)[O-])cc2)C(=O)c2ccc(-c3cssc3=S)cc2)cc1
assayed.system: hCA IV (Homo sapiens, UniProt P22748)
SI CA I/IV: <0.7
//
smiles.representation: N#Cc1ccc(CN(CCc2ccc(S(N)(=O)=O)cc2)C(=O)c2ccc(-c3cssc3=S)cc2)cc1
assayed.system: hCA IV (Homo sapiens, UniProt P22748)
SI CA I/IV: >216.4
//
smiles.representation: NS(=O)(=O)c1ccc(CCN(Cc2cccc3ccccc23)C(=O)c2ccc(-c3cssc3=S)cc2)cc1
assayed.system: hCA IV (Homo sapiens, UniProt P22748)
SI CA I/IV: >41.0
//
smiles.representation: NS(=O)(=O)c1ccc(CCN(Cc2ccc(F)cc2)C(=O)c2ccc(-c3cssc3=S)cc2)cc1
assayed.system: hCA IV (Homo sapiens, UniProt P22748)
SI CA I/IV: <0.53

Proceeding to the next compound to report its SI CA I/IV.
## Input Report SI CA I/IV for `NS(=O)(=O)c1ccc(CCN(Cc2csc3ccccc23)C(=O)c2ccc(-c3cssc3=S)cc2)cc1` please.
## Output >208

Sourced from paper PMC9574929
